B1: STK38L (parent)
chain: FCIDSENRIGNSGVEEIKGHPFFE

Variants of: B1
assay: protein stability index of a GFP-peptide fusion (GPS, HEK-293T) (PSI 1-6); higher = more stable;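 further: lentivirally expressed fusions sorted by FACS into six bins by GFP to DsRed ratio, PSI derived from sequencing read proportions per bin multiplied by bin number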
assay.setup: c terminus: a fixed tail appended
endpoint.label: protein stability index

{"columns": ["changes", "number"],
 "data": [
  ["G13L", 2.22],
  ["I3G", 3.29],
  ["E6P", 1.48],
  ["V14M", 2.47],
  ["E15P", 1.98],
  ["R8L", 2.34],
  ["E15H", 2],
  ["D4L", 1.25],
  ["N7M", 2.71],
  ["H20P", 3.45],
  ["S5T", 2.25],
  ["G10L", 1.96],
  ["F22H", 4.33],
  ["N7P", 2.21],
  ["F22E", 4.79],
  ["G19Q", 2.37],
  ["E24K", 1.72],
  ["C2D", 3.12],
  ["C2T", 3.25],
  ["P21H", 2.89],
  ["K18V", 2.63],
  ["C2L", 2.94],
  ["H20E", 4.12],
  ["G19Y", 1.99],
  ["I3H", 2.75],
  ["E24D", 2.24],
  ["S5A", 1.95],
  ["F22R", 4.21],
  ["R8N", 2.94],
  ["R8W", 2.87],
  ["H20A", 3.79],
  ["G13M", 2.12],
  ["I17W", 1.67],
  ["E16G", 2.67],
  ["R8Y", 2.15],
  ["P21I", 2.46],
  ["F1I", 3.24],
  ["E24G", 1.59],
  ["N7W", 4.28],
  ["E6W", 1.35],
  ["R8I", 2.79],
  ["N7A", 2.93],
  ["C2H", 1.99],
  ["F23R", 1.72],
  ["G10V", 1.54],
  ["C2K", 3.37]
]}

meta.source: the supplement of paper PMC10567573
